Reference for the values: the antibiotic and cytotoxicity screens of Wong et al. (2023)

Test system: HepG2
Assay: cytotoxicity call (relative viability < 0.9)
Conditions: 10 µM
Hit rate of the full screen: of about 39,000 compounds, about 3,300 (8.5%) were called active. For the sample, actives were picked, then their nearest neighbours and some compounds at random.
measurement.kind: cytotoxicity call

cytotoxicity call in this record for `C[C@@H]1CCCCO[C@H](CN(C)C(=O)Nc2ccc(C(F)(F)F)cc2)[C@H](C)CN([C@H](C)CO)C(=O)c2cc(NS(=O)(=O)c3cccs3)ccc2O1` : inactive

cytotoxicity call in this record for `C[C@@H]1CN([C@H](C)CO)C(=O)c2cc(NS(=O)(=O)c3cccs3)ccc2O[C@@H](C)CCCCO[C@H]1CN(C)C(=O)NC1CCCCC1` : inactive
